The reported measurements were obtained from patent US20240025971A1.

Biological target: SARS-CoV-2 Spike (S) trimer (SARS-CoV-2), P0DTC2
Experiment: ELISA, S trimer coated, 1:50 dilution
Conditions: remark: other sources report otherwise

{"binder": "AB-009202 (antibody, V domains shown) VH: QVQLVESGGGVVQPGRSLRLSCAASGFTFSSYGMHWVRQAPGKGLEWVAVIWYDGSNKYYADSVKGRFTISRDNSKNTLYLQMNSLRAEDTAVYYCARDGGPEYYFDYWGQGTLVTVSS VL: SYELTQPPSVSVSPGQTARITCSGDALPKQYAYWYQQKPGQAPVLVIYKDSERPSGIPERFSGSSSGTTVTLTISGVQAEDEADYYCQSADSSGTYNVVFGGGTKLTVL", "Optical Density (OD; 450 nm) [OD450]": 1.99}
